All values here come from the supplement of paper PMC10567573.

Please provide measured protein stability index for the entries that follow.
B1: ZBTB22 (parent)
chain: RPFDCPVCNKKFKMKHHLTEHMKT

Variants of: B1
protocol.summary: protein stability index of a GFP-peptide fusion (GPS, HEK-293T) (PSI 1-6); higher = more stable;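 further: lentivirally expressed fusions sorted by FACS into six bins by GFP to DsRed ratio, PSI derived from sequencing read proportions per bin multiplied by bin number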
settings: c terminus: a fixed tail appended
// keep it numeric: no unit symbol after the value

Could you share which protein stability index value was measured for `N9I` ?
1.92

Same question for `P2L` please.
2.3

Same question for `N9V` please.
2.06

Same question for `E20Y` please.
1.85

Same question for `F12N` please.
1.96

Same question for `K15E` please.
3.73

Same question for `L18D` please.
2.39

Same question for `H16G` please.
2.11

Same question for `H17N` please.
2.62

Same question for `E20I` please.
2.21

Same question for `H17D` please.
3.07

Same question for `K13H` please.
2.65

Same question for `P6Y` please.
2.25

Same question for `M22Y` please.
2.72

Same question for `F12R` please.
1.83

Same question for `H21T` please.
2.24

Same question for `C5H` please.
2.78

Same question for `T24Q` please.
2.53

Same question for `L18E` please.
2.78

Same question for `R1P` please.
3.17

Same question for `R1C` please.
3.18

Same question for `P2M` please.
2.46

Same question for `M22K` please.
2.92

Same question for `K13W` please.
2.58

Same question for `P6F` please.
2.15

Same question for `T19Y` please.
2.41

Same question for `K10Q` please.
2.21

Same question for `C8N` please.
2.98

Same question for `M14A` please.
3.09

Same question for `C5D` please.
3.21

Same question for `H17A` please.
2.17

Same question for `R1A` please.
3

Same question for `C8R` please.
3.08

Same question for `F3H` please.
2.56

Same question for `H21N` please.
2.38

Same question for `T19M` please.
3.18

Same question for `M14I` please.
2.35
